# CONDITION NOTES: 293.15 K; 25000 kPa; Liquid; Vibrating tube method
Numbers after ± are expanded uncertainties.
VALUE KIND: mass density
Lab note: write values as number then unit, every time.

**Q:** Note mass density for the compound shown: CCCCCCC(=O)OC [methyl heptanoate]
**A:** 897.18 ± 0.95 kg/m3

**Q:** For CCCCCC(=O)OC [methyl hexanoate] , write its mass density.
**A:** 902.28 ± 0.95 kg/m3

**Q:** Consider the compound CCCCCCCCC(=O)OC [methyl nonanoate] . State its measured mass density.
**A:** 890.33 ± 0.94 kg/m3

**Q:** Hello, please tell me recorded mass density for this one: CCCCCCCC(=O)OC [methyl octanoate]
**A:** 893.28 ± 0.94 kg/m3

**Q:** Using known records, supply mass density for CCCC(=O)OC [methyl butanoate]
**A:** 918.33 ± 0.96 kg/m3

**Q:** Consider the compound CCCCC(=O)OC [methyl pentanoate] and give its recorded mass density.
**A:** 908.91 ± 0.95 kg/m3

* * *

Answer each item with its documented mass density.
# CONDITION NOTES: 293.15 K; 30000 kPa; Liquid; Vibrating tube method
// units = kg/m3; emit number, no label

**Q:** Identify measured mass density corresponding to CCCCCC(=O)OC [methyl hexanoate]
**A:** 905.55

**Q:** Given CCCC(=O)OC [methyl butanoate] , respond with its mass density.
**A:** 921.95

**Q:** Identify measured mass density associated with CCCCCCC(=O)OC [methyl heptanoate]
**A:** 900.36

**Q:** Give mass density for the following molecule: CCCCC(=O)OC [methyl pentanoate]
**A:** 912.4

**Q:** Could you please provide reported mass density for CCCCCCCCC(=O)OC [methyl nonanoate] ? Thanks!
**A:** 893.33

**Q:** Using known records, supply mass density for CCCCCCCC(=O)OC [methyl octanoate]
**A:** 896.35

* * *

Assignment: determine reported mass density for the given compounds.
# CONDITION NOTES: 313.15 K; 20000 kPa; Liquid; Vibrating tube method
± gives the expanded uncertainty stated by the source.
Don't forget the unit after the value.

**Q:** Name the recorded mass density of the compound listed here: CCCCCCCC(=O)OC [methyl octanoate]
**A:** 874.1 ± 0.92 kg/m3

**Q:** Please indicate mass density recorded for CCCCCCC(=O)OC [methyl heptanoate]
**A:** 877.29 ± 0.93 kg/m3

**Q:** Give recorded mass density. CCCCC(=O)OC [methyl pentanoate]
**A:** 886.62 ± 0.93 kg/m3

**Q:** Provide only the value of recorded mass density for CCCC(=O)OC [methyl butanoate]
**A:** 894.25 ± 0.94 kg/m3

**Q:** Look up and state reported mass density for CCCCCC(=O)OC [methyl hexanoate]
**A:** 881.48 ± 0.93 kg/m3

**Q:** Specify mass density for CCCCCCCCC(=O)OC [methyl nonanoate] and stop.
**A:** 871.68 ± 0.92 kg/m3

* * *

# CONDITION NOTES: 363.15 K; 60000 kPa; Liquid; Vibrating tube method
VALUE KIND: mass density (kg/m3)
All answers are understood in kg/m3, so give the number only.

**Q:** Note down mass density recorded for CCCCCCC(=O)OC [methyl heptanoate]
**A:** 867.91

**Q:** For the molecule CCCCCCCC(=O)OC [methyl octanoate] , give its measured mass density value.
**A:** 865.07

**Q:** Please give measured mass density of the following entry: CCCCCCCCC(=O)OC [methyl nonanoate]
**A:** 862.59

**Q:** Supply recorded mass density for CCCCCC(=O)OC [methyl hexanoate] here.
**A:** 871.24

**Q:** Respond only with mass density recorded for CCCC(=O)OC [methyl butanoate]
**A:** 881.85

**Q:** Supply reported mass density belonging to this molecule: CCCCC(=O)OC [methyl pentanoate]
**A:** 875.9

src = the NIST ThermoML archive (doi:10.1016/j.fluid.2018.04.024)
